Cited source: ChEMBL document CHEMBL1153818

# test.target: Heat shock protein HSP 90-beta (Homo sapiens)
# Sequence (P08238 whole entry): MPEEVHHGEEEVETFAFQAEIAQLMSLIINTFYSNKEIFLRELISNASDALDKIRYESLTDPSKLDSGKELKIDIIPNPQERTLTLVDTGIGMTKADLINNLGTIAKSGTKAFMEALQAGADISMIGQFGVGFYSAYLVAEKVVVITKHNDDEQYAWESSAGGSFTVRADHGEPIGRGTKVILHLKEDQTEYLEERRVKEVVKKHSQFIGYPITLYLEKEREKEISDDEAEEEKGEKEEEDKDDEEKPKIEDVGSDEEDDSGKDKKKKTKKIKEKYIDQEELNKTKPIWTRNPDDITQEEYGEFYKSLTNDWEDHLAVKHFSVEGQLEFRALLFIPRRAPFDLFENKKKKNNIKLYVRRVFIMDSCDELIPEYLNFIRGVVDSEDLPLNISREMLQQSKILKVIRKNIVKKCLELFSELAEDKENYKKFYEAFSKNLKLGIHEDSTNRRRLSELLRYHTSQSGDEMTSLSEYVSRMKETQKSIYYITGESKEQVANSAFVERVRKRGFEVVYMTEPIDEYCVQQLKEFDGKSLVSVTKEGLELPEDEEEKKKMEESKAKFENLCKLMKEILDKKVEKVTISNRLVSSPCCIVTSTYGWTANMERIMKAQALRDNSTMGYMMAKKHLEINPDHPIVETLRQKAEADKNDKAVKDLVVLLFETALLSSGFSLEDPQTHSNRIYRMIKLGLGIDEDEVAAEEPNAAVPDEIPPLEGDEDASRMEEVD
# experiment.description: Inhibition of Hsp90 by FP ATP-site binding assay
measurement.kind: IC50 (µM)

# mol.smiles, measurement.kind, units, endpoint.result
data = [
    ("COc1cc(C(=O)n2ncc3cc(N)ccc32)cc(OC)c1OC", "IC50", "µM", 80.8),
]
